Tested on: SK-MEL-2 melanoma
Assay: NCI tumour cell line growth inhibition, 48 h
Observed Property: TGI

// solved cases for TGI follow
Cn1ncc2c(=O)[nH]c(-c3ccccc3)nc21; > 100 µM
CC(=O)N(C(=O)CC(=O)NNCc1ccccc1Cl)c1ccc(Cl)cc1; > 10 µM
CCOC(=O)C1C(c2ccco2)C2(C#N)C(=N)OC1(C)C2(C#N)C#N (stereo not drawn); > 100 µM
CCOC(=O)CC[C@H](NC(=O)c1ccc(CNc2nc3cc(C(F)(F)F)ccc3nc2C(=O)OCC)cc1)C(=O)OCC; > 94.1 µM
C[C@]12CC[C@H](OC(=O)Cc3ccc(N(CCCl)CCCl)cc3)CC1CC[C@@H]1C2CC[C@]2(C)NC(=O)CCC12 (stereo partly drawn); 48.7 µM
COc1ccc(C(=O)OC2C(OC3C(O)COC(O[C@H]4C[C@H]5[C@@H]6CC=C7C[C@@H](O)CC[C@]7(C)[C@H]6CC[C@]5(C)[C@H]4[C@H](C)C(=O)CCC(C)C)C3OC(=O)C(C)C)OCC(O)C2O)cc1 (stereo partly drawn); 0.213 µM

Query string: Would you kindly share the measured TGI for "CC1=CC[C@@H]2[C@@H](CC[C@@]2(C)O)C(C)(C)[C@H]1CC[C@@H]1[C@@]2(C)CC[C@@H](O)C(C)(C)O[C@@H]2CC[C@]1(C)O" ?
Result string: > 100 µM

Query string: Follow-up item: "N=C1/C(=C/c2ccco2)C(=O)N=C2SC=NN12"
Result string: > 100 µM

----------
Tested on: DU-145 prostate
Assay: NCI tumour cell line growth inhibition, 48 h; in the data active = GI50 below about 0.43 µM; inactive = the rest
Pick one: active, inactive

Reference set (3 entries):
COc1ccc(C2CC(c3ccc4ccccc4c3)=NN2/C=C2\SC(=S)N(NC(=O)Cc3ccccc3Nc3c(Cl)cccc3Cl)C2=O)cc1 (centres undefined); active
COc1cc(/C=C/C(=O)c2ccc(F)cc2)ccc1OCCCCOc1cc2c(cc1OC)C(=O)N1CCCC1C=N2 (centres undefined); inactive
C=C(c1ccc(OC)c(/C=C/C(=O)c2cc(OC)c(OC)c(OC)c2)c1)c1cc(OC)c(OC)c(OC)c1; inactive

Okay, next one:
Query string: Please state the recorded outcome for this compound: "CS(=O)(=O)c1nccc(-c2c(-c3cccc(OCc4ccccc4)c3)nc3sccn23)n1"
Result string: inactive

----------
Tested on: MALME-3M melanoma
Assay: NCI tumour cell line growth inhibition, 48 h; in the data active means GI50 below about 0.43 µM; inactive means the rest
Outcome (select one): T = active, F = inactive

Reference set, count: 6
O=c1ncc(I)c[nH]1; F
C=C(C)[C@@H]1CC[C@]2(C)[C@H](CC=C3[C@@H]4CC(C)(C)CC[C@]4(CO)CC[C@]32C)[C@@]1(C)CCCN; F
O=C(Nc1ccc(-n2ccc3c(NC(=O)c4ccccc4)ncnc32)cc1)Nc1ccc(Cl)c(C(F)(F)F)c1; F
COc1ccc2nc(-c3ccc(Cl)cc3)cc(-c3nnc(SCC(=O)Nc4ccc(/C(C)=N\O)cc4)o3)c2c1; F
CC(C)C[C@H](NC(=O)[C@H](Cc1ccccc1)NC(=O)c1cnccn1)B(O)O; T
N=C(N)c1ccc(CS(=O)(=O)F)cc1; F

Please turn your attention to the following entry.
Query string: What classification did Cc1c(C)n(CC(O)CNC2CCCCC2C)c2ccccc12 (configuration not stated) end up with in this test?
Result string: F
